test: in vitro; conditions: mouse, pH 7.4
READOUT KIND: recovery at 5 h, 1 μM (%)
Answer format: numeric, % implied, no suffix.

| MOLECULE | ASSAY VALUE |
| --- | --- |
| COc1ccc(CCN(C)CCCC(C#N)(c2ccc(OC)c(OC)c2)C(C)C)cc1OC (centres unmarked) [Verapamil, reference compound] | 91 |

Query :: Form field: reported recovery at 5 h, 1 μM of `COC(=O)[C@@](C)(NC(=O)c1cc(C)n(-c2cccc(C(F)(F)F)c2)n1)c1cccs1`
Result :: 107

* * *

target: hCB1 (Homo sapiens); assay: bioSensAll ebBRET signaling profiling, hCB1; assay type: cell-based; design: host or cells: HEK293SL cells, transient PEI transfection; conditions: Log [Compound] (M) -10.5529; single replicate values, FigS6a
Sequence (P21554 whole entry): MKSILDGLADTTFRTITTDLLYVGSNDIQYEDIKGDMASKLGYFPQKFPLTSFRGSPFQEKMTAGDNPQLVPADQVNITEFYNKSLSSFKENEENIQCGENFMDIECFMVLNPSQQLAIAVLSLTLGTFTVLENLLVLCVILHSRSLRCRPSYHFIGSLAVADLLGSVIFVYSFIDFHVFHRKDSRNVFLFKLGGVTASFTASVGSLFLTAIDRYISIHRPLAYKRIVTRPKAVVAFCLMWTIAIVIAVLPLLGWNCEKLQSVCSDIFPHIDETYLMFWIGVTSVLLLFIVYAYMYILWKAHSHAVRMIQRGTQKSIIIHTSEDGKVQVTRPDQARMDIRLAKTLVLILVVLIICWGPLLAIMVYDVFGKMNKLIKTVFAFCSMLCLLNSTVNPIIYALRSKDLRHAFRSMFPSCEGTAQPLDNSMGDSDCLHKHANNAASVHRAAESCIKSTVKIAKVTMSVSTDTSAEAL
READOUT KIND: Gi1 hCB1
Give the value as a plain number.

Below, each entry is followed by its recorded Gi1 hCB1 result.
| COMPOUND | Gi1 hCB1 |
| --- | --- |
| COC(=O)C(NC(=O)c1cc(C)n(-c2cccc(C(F)(F)F)c2)n1)c1cccs1 (centres unmarked) [‘60154] | 0.8599 |
| Cc1nn(Cc2ccc(Cl)cc2)c(C)c1C(=O)OCC1CSc2ccccc2O1 (centres unmarked) [‘5463] | -0.3926 |
| Cc1cc(C(=O)N2CC3(CCC3)[C@@H]2[C@H]2CCCO2)nn1-c1cccc(C(F)(F)F)c1 (single isomer, unassigned) [compound 430] | 0.1353 |
| Cc1cc(C(=O)NC(c2ccccc2)c2ccco2)nn1-c1cccc(C(F)(F)F)c1 (centres unmarked) [‘1081] | 3.496 |
| Cc1cc(C(=O)N(C)C(c2ccccc2)c2ccco2)nn1-c1cccc(C(F)(F)F)c1 (centres unmarked) [‘1082] | 1.384 |
| Cc1c(C(=O)OCC2CSc3ccccc3O2)cnn1Cc1ccccc1 (centres unmarked) [‘7800] | -1.2 |
| Cc1cc(C(=O)NC(c2ccco2)c2ccco2)nn1-c1cccc(C(F)(F)F)c1 [‘1090] | 2.155 |
| Cc1cc(C(=O)NC(c2ccccc2)c2ccco2)nn1-c1cccc(C#N)c1 (centres unmarked) [‘12565] | -0.3889 |

Query :: What Gi1 hCB1 appears in the records for this compound with hCB1 (Homo sapiens)? COC(=O)[C@@H]1[C@@H]2CC[C@@H]2CN1C(=O)c1cc(C)n(-c2cccc(C(F)(F)F)c2)n1 [‘6448]
Result :: 1.9236

Query :: What Gi1 hCB1 appears in the records for this compound with hCB1 (Homo sapiens)? Brc1cc2c(cc1Cc1noc(-c3cnn(CC4CC4)c3)n1)OCO2 [‘5424]
Result :: 0.9853

Query :: What Gi1 hCB1 appears in the records for this compound with hCB1 (Homo sapiens)? Cc1cc(C(=O)N2CC3(CCC3)[C@@H]2[C@@H]2CCCO2)nn1-c1cccc(C(F)(F)F)c1 [‘3386]
Result :: 1.014

Query :: What Gi1 hCB1 appears in the records for this compound with hCB1 (Homo sapiens)? Cc1cc(C(=O)N2CC3(CCC3)[C@H]2[C@H]2CCCO2)nn1-c1cccc(C(F)(F)F)c1 [‘1651]
Result :: 4.329

Query :: What Gi1 hCB1 appears in the records for this compound with hCB1 (Homo sapiens)? Cc1nc(CC2CC2)oc1-c1nc(Cc2cc3c(cc2Br)OCO3)no1 [‘7019]
Result :: 1.635

Query :: What Gi1 hCB1 appears in the records for this compound with hCB1 (Homo sapiens)? COC(=O)[C@@H]1[C@@H]2CCC[C@@H]2CN1C(=O)c1cc(C)n(-c2cccc(C(F)(F)F)c2)n1 [‘6439]
Result :: 0.5669

Query :: What Gi1 hCB1 appears in the records for this compound with hCB1 (Homo sapiens)? Cn1nc(-c2nnc(C(C)(C)Oc3ccc(C(F)(F)F)cc3)o2)c2ccccc2c1=O [‘2153]
Result :: -5.27

Query :: What Gi1 hCB1 appears in the records for this compound with hCB1 (Homo sapiens)? COc1cccc(C(NC(=O)c2cc(C)n(-c3cccc(C(F)(F)F)c3)n2)c2ccco2)c1 (centres unmarked) [‘1087]
Result :: 3.666

Query :: What Gi1 hCB1 appears in the records for this compound with hCB1 (Homo sapiens)? COC(=O)[C@@H]1[C@@H]2CCC[C@@H]2CN1C(=O)c1cc(C)n(-c2cccc(Cl)c2)n1 (racemic) [‘10010]
Result :: 2.648
